Entry source: patent US20180036441A1

// reported geometric mean for each item listed
molecular target: T1, MUC1 on HCT116/MUC1 cells (UniProt P15941 24-1255, limits assumed); experiment: FACS titration, HCT116/MUC1 cells, antibody at 0.244 nM
T1 construct: whole, on cells; also called MUC1 overexpressed cell line
T1 sequence (P15941 24-1255 limits assumed): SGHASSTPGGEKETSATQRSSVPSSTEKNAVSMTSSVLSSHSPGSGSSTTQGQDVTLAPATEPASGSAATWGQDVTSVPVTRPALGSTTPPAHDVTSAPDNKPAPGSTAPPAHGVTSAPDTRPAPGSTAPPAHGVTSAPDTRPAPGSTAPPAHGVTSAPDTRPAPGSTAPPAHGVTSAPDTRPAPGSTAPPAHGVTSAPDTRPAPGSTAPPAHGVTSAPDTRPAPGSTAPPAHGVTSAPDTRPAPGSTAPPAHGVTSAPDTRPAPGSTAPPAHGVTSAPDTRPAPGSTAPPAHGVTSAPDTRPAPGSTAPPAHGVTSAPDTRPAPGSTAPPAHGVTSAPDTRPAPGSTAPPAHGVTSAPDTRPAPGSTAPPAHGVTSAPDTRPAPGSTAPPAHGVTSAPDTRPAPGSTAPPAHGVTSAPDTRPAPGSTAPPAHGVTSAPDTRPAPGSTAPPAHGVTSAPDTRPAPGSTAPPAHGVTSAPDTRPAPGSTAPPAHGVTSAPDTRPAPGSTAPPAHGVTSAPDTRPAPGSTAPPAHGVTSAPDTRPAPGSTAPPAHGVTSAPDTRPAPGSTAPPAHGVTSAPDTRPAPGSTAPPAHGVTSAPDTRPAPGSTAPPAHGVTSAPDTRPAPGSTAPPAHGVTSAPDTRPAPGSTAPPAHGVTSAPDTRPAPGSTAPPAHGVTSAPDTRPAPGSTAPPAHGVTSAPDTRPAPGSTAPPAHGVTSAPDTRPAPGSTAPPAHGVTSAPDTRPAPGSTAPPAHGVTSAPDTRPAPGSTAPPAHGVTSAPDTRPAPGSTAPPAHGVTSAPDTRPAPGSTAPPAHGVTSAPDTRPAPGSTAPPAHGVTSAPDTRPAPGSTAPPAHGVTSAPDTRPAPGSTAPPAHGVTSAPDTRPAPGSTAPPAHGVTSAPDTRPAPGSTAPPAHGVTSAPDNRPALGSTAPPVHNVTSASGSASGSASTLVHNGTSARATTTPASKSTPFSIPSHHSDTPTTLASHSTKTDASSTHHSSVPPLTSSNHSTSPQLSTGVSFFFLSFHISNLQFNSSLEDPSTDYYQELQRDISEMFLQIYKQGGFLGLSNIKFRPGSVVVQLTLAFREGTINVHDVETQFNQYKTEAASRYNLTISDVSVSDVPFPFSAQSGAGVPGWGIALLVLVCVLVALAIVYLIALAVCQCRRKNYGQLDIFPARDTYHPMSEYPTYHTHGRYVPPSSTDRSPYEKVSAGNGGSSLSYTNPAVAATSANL
Please give only the number in your answer, with no unit.

Answered examples (4):
Binder	Reported Property	Experimental Value
VH3 + VL4 (antibody, V domains shown, Humanized IgG expressed in HEK293; also called humanized antibody VH3+VL4) VH: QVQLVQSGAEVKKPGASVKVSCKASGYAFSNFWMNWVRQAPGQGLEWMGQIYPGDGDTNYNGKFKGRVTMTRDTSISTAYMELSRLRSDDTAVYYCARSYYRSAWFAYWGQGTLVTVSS VL: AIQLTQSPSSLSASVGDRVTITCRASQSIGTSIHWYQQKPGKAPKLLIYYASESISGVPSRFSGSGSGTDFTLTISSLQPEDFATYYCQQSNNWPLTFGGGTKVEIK	geometric mean	9.23
VH4 + VL1 (antibody, V domains shown, Humanized IgG expressed in HEK293; also called humanized antibody VH4+VL1) VH: QVQLVQSGAEVKKPGATVKISCKVSGYAFSNFWMNWVQQAPGKGLEWMGQIYPGDGDTNYNGKFKGRVTITADTSTDTAYMELSSLRSEDTAVYYCARSYYRSAWFAYWGQGTLVTVSR VL: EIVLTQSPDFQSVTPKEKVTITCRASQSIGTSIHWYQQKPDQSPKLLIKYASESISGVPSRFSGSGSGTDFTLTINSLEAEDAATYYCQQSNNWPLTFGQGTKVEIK	geometric mean	2.54
VH5 + VL4 (antibody, V domains shown, Humanized IgG expressed in HEK293; also called humanized antibody VH5+VL4) VH: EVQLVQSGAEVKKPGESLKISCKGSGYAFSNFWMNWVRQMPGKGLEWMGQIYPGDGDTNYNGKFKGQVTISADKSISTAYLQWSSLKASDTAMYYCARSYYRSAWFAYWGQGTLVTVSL VL: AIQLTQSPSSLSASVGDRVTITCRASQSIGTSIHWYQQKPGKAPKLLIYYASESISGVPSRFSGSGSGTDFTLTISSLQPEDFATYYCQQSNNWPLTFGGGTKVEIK	geometric mean	2.84
VH3 + VL3 (antibody, V domains shown, Humanized IgG expressed in HEK293; also called humanized antibody VH3+VL3) VH: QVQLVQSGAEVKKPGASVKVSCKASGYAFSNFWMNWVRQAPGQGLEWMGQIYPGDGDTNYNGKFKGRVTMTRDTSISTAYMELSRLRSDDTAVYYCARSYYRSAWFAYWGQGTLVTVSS VL: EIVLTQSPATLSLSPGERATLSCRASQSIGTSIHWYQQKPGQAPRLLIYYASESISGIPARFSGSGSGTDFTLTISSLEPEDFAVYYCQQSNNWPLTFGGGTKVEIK	geometric mean	2.61

The record that follows has no geometric mean shown yet.
Task item: What geometric mean value was documented for this binder, VH2 + VL4 (antibody, V domains shown, Humanized IgG expressed in HEK293; also called humanized antibody VH2+VL4) VH: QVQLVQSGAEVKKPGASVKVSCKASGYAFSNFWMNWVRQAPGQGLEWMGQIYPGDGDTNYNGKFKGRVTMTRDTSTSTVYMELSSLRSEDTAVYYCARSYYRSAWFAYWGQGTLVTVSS VL: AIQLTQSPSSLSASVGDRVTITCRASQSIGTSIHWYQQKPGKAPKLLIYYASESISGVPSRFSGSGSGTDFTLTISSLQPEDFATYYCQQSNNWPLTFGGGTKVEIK ?
Reply: 2.88
